Measured cytotoxicity at 10 µM accompanies every entry in the list below.
- protocol_summary: Toxicity liver stage against HepG2, at 10uM
- Format: cell-based
- Design: test concentration 10 uM, cell line HepG2-A16-CD81EGFP
- run_parameters: human, HepG2-A16-CD81EGFP cells; read-out: INHIBITION

molecule	cytotoxicity at 10 µM / %
Cn1cccc1CN1CCc2c(nc(-c3ccccn3)[nH]c2=O)C1	-10
Cc1ccn(-c2cccc(C(=O)N3CCCC(n4ccnc4C)C3)c2)n1 (configuration not stated)	-14.2
CNC(=O)CS(=O)(=O)NC1CCC(C)CC1 (configuration not stated)	-8.18
COC(=O)c1ccc(Cn2nc(C)cc2C)c(F)c1	4.11
COc1ccccc1CCc1nc(CC2CCN(C)CC2)no1	7.71
COCCN(Cc1ccccc1Cl)c1nc(CCN)nc2ccccc12	12.9
COCCNC(=O)CN(C)Cc1ccc(F)cc1Cl	-1.02
COc1cncc(N2CCN(Cc3ccco3)CC2)n1	0.197
OCc1nnn2c1CN(Cc1cccnc1)CCC2	10.1
O=C(Nc1ccccc1)C1CCN(C(=O)COc2ccccc2F)CC1	8.94
O=C(O)c1cnc2c(cnn2C2CCCC2)c1	-8.23
COc1cccc(-n2nnc(C(=O)N3CCOC(C)C3)c2C)c1 (configuration not stated)	-9.95
